Species on record: Rattus norvegicus
protocol.text: DrugMatrix - Regimen: Daily Repeat
Format: toxicity, organism-based, Sprague-Dawley
Parameters: regimen Daily Repeat, gender Male, age 6-8 weeks
condition.set: in vivo, po, 0 mg/kg, 120 h, tissue Blood, route oral GAVAGE, dose level Control, time 5 day, vehicle .5 % CMC
quantity.kind: LEUKOCYTE COUNT (x10E3/uL)
Express it in x10E3/uL; write the number only.

Sample answers from the record:
INSERT INTO measurements (compound, quantity_kind, obs_value) VALUES
  ('CCOC(=O)OC(C)OC1=C(C(=O)Nc2ccccn2)N(C)S(=O)(=O)c2ccccc21 (centres undefined)', 'LEUKOCYTE COUNT', 11.17),
  ('NCC(=O)O', 'LEUKOCYTE COUNT', 11.87),
  ('Brc1ccccc1', 'LEUKOCYTE COUNT', 11.17),
  ('CCC[C@@H]1C[C@@H](C(=O)N[C@@H]([C@H]2O[C@H](SC)[C@H](O)[C@@H](O)[C@H]2O)[C@@H](C)O)N(C)C1', 'LEUKOCYTE COUNT', 16.08),
  ('C[C@]12CCC(=O)C=C1CC[C@@H]1[C@@H]2C(=O)C[C@@]2(C)[C@H]1CC[C@]2(O)C(=O)CO', 'LEUKOCYTE COUNT', 9.45),
  ('CCc1ccc(C(=O)C(C)CN2CCCCC2)cc1 (centres undefined)', 'LEUKOCYTE COUNT', 14.08),
  ('COc1c(C)c2c(c(O)c1C/C=C(\C)CCC(=O)OCCN1CCOCC1)C(=O)OC2 [MYCOPHENOLATE MOFETIL]', 'LEUKOCYTE COUNT', 15.03),
  ('O=C1CCc2cc(OCCCCc3nnnn3C3CCCCC3)ccc2N1', 'LEUKOCYTE COUNT', 11.38),
  ('Cc1c(-c2ccccc2)oc2c(C(=O)OCCN3CCCCC3)cccc2c1=O [FLAVOXATE]', 'LEUKOCYTE COUNT', 15.95),
  ('CC(C)[C@H](N)C(=O)OCCOCn1cnc2c(=O)[nH]c(N)nc21', 'LEUKOCYTE COUNT', 15.07);

Okay, now this compound:
Need LEUKOCYTE COUNT of O=c1[nH]cc(F)c(=O)[nH]1 , thanks. 10.73

---

Species on record: Rattus norvegicus
protocol.text: DrugMatrix - Regimen: Daily Repeat
Type: toxicity, organism-based, Sprague-Dawley
Design: regimen Daily Repeat, gender Male, age 6-8 weeks
condition.set: in vivo, po, 0 mg/kg, 72 h, tissue Plasma, route oral GAVAGE, dose level Control, time 3 day, vehicle 100 % WATER
Rule: LIPASE under 10 u/L gives Not fulfilled, otherwise Fulfilled.

INSERT INTO measurements (compound, class) VALUES
  ('C[C@]12Cc3c[nH]nc3C[C@@H]1CC[C@@H]1[C@@H]2CC[C@@]2(C)[C@H]1CC[C@]2(C)O [STANOZOLOL]', 'Not fulfilled'),
  ('NNC(=O)c1ccncc1 [ISONIAZID]', 'Fulfilled'),
  ('O=C1NC(=O)C(c2ccccc2)(c2ccccc2)N1 [PHENYTOIN]', 'Not fulfilled'),
  ('CC1COc2c(N3CCN(C)CC3)c(F)cc3c(=O)c(C(=O)O)cn1c23 (stereo not given) [OFLOXACIN]', 'Fulfilled'),
  ('COc1cc2c(N3CCN(C(=O)Nc4ccc(OC(C)C)cc4)CC3)ncnc2cc1OCCCN1CCCCC1 [TANDUTINIB]', 'Fulfilled');

API: above_or_equal(metric=LIPASE, cutoff=10 u/L) for item Fc1ccc([C@@H]2CCNC[C@H]2COc2ccc3c(c2)OCO3)cc1 [PAROXETINE] Not fulfilled

API: above_or_equal(metric=LIPASE, cutoff=10 u/L) for item COc1cccc(C2(O)CCCCC2CN(C)C)c1 (stereo not given) [TRAMADOL] Not fulfilled

API: above_or_equal(metric=LIPASE, cutoff=10 u/L) for item Clc1ccc(C(c2ccccc2Cl)C(Cl)Cl)cc1 (stereo not given) [MITOTANE] Fulfilled

API: above_or_equal(metric=LIPASE, cutoff=10 u/L) for item CC(CCc1ccccc1)NCC(O)c1ccc(O)c(C(N)=O)c1 (stereo not given) [LABETALOL] Not fulfilled

API: above_or_equal(metric=LIPASE, cutoff=10 u/L) for item CNCCC=C1c2ccccc2CCc2ccccc21 [NORTRIPTYLINE] Not fulfilled

API: above_or_equal(metric=LIPASE, cutoff=10 u/L) for item CN1CCN(C(=O)OC2c3nccnc3C(=O)N2c2ccc(Cl)cn2)CC1 (stereo not given) [ZOPICLONE] Not fulfilled

API: above_or_equal(metric=LIPASE, cutoff=10 u/L) for item CN1CCC[C@H]1c1cccnc1 [NICOTINE] Fulfilled

API: above_or_equal(metric=LIPASE, cutoff=10 u/L) for item Nc1ccc(S(=O)(=O)Nc2ccnn2-c2ccccc2)cc1 [SULFAPHENAZOLE] Fulfilled

API: above_or_equal(metric=LIPASE, cutoff=10 u/L) for item Cn1cnc([N+](=O)[O-])c1Sc1ncnc2nc[nH]c12 [AZATHIOPRINE] Fulfilled

API: above_or_equal(metric=LIPASE, cutoff=10 u/L) for item CC1(C)S[C@@H]2[C@H](NC(=O)[C@H](N)c3ccc(O)cc3)C(=O)N2[C@H]1C(=O)O [AMOXICILLIN] Not fulfilled

API: above_or_equal(metric=LIPASE, cutoff=10 u/L) for item CC(C)(S)[C@@H](N)C(=O)O [PENICILLAMINE] Not fulfilled
